- target_entity: T1, MHC class I allele A*0101 (bound via biotin to streptavidin-coated plate)
- T1 construct: iTopia MHC class I monomer on the plate; placeholder peptide and b2M removed, then reconstituted with test peptide and fresh b2M; also called A1; HLA A1
- assay_method_text: iTopia peptide binding assay
value_kind: % of positive control peptide binding (%)

>>> df
                                      binder  readout_value
 0  SSAPFLASA (also called Peptide No 22) [5T4 9 mer peptide 22 SSAPFLASA]              6
 1  SPTSSASSF (also called Peptide No 17) [5T4 9 mer peptide 17 SPTSSASSF]              2
 2  LNLSGSRLD (also called Peptide No 62) [5T4 9 mer peptide 62 LNLSGSRLD]              2
 3  ERQNRSFEG (also called Peptide No 95) [5T4 9 mer peptide 95 ERQNRSFEG]              0
 4  VKCVNRNLT (also called Peptide No 38) [5T4 9 mer peptide 38 VKCVNRNLT]              6
 5  MPGGCSRGP (also called Peptide No 1) [5T4 9 mer peptide 1 MPGGCSRGP]              0
 6  PAGAFARRP (also called Peptide No 54) [5T4 9 mer peptide 54 PAGAFARRP]              2
 7  SEAARTVKC (also called Peptide No 35) [5T4 9 mer peptide 35 SEAARTVKC]              5
 8  VSAPSPLVE (also called Peptide No 85) [5T4 9 mer peptide 85 VSAPSPLVE]              3
 9  PPEDERQNR (also called Peptide No 93) [5T4 9 mer peptide 93 PPEDERQNR]              0
10  HNPLADLSP (also called Peptide No 76) [5T4 9 mer peptide 76 HNPLADLSP]              5
11  VPTDLPAYV (also called Peptide No 43) [5T4 9 mer peptide 43 VPTDLPAYV]             33
12  PFAFSGSNA (also called Peptide No 80) [5T4 9 mer peptide 80 PFAFSGSNA]              0
13  LASNHFLYL [5T4 9 mer peptide 109 LASNHFLYL]             26
14  NHIVPPEDE (also called Peptide No 91) [5T4 9 mer peptide 91 NHIVPPEDE]              6
15  SGSNASVSA (also called Peptide No 82) [5T4 9 mer peptide 82 SGSNASVSA]              5
